Just for reference, ChEMBL document CHEMBL1141973 is where these values come from.

molecular target: Neuronal acetylcholine receptor subunit alpha-7 (Homo sapiens); experiment: Binding affinity for nicotinic acetylcholine receptor alpha 7 from human neuroblastoma SH-SY5Y cells; n=3
Sequence (P36544 whole entry): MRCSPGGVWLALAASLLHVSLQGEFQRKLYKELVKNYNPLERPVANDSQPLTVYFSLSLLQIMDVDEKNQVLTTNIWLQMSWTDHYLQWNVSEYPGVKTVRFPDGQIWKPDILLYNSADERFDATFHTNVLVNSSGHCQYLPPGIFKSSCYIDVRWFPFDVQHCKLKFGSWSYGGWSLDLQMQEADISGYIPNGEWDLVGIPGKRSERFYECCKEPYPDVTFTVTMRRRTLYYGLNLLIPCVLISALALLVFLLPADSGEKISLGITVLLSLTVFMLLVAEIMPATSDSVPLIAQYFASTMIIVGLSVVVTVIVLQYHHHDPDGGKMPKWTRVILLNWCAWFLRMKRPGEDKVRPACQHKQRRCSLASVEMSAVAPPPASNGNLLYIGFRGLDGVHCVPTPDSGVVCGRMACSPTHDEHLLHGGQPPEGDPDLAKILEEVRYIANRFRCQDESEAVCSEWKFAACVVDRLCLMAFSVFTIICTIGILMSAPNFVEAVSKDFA
pKi: −log10 of the molar value.
Please respond with reported pKi for every item in the list.

Retrieve pKi measured for c1cncc([C@@H]2CCCN2)c1 (racemic) and print it.
3.86

Retrieve pKi measured for c1cc2c(cn1)C1CCC(CC2)N1 (racemic) and print it.
< 4.00

Retrieve pKi measured for Cc1cc2c(cn1)C1CCC(CC2)N1 (racemic) and print it.
~3.00
